All values here come from patent US4804665A.

Test system: mice
assayName: General Symptoms (Side Effects) in mice
Type: in vivo
Design: key: +++: marked; ++: moderate; +: mild; -: nondetected
testConditions: i.p., observed for 4 hours, peripheral effect
observedProperty: Diarrhea

>>> result("CON1C(=O)CC2(CCN(C)CC2)C1=O.Cl [Example 1]")
"-"
>>> result("CON1C(=O)CC2(CCN(C(=O)OCCBr)CC2)C1=O [Example 22]")
"+"
>>> result("CON1C(=O)CC2(CCNCC2)C1=O [Example 9]")
"++"
>>> result("CCN1C(=O)CC2(CCN(C)CC2)C1=O [RS-86, reference compound]")
"+++"
